FYI, the data here is from the supplement of paper PMC5412046.

# System: SB.msgc-1
# Protocol Text: viability at highest tested concentration (MAXR) relative to DMSO; higher = less cytotoxic
# Measurement Context: SB.msgc-1 (sporadic gastric cancer)
Structures can show the parent of a compound that is named as a salt.
Catalogue of viability readings, one per entry.
Please state the figure in %; there is no need to write the unit.

[[record]]
compound = "COC(=O)[C@@H]1[C@H]2C[C@H]3c4[nH]c5ccccc5c4CCN3C[C@@H]2CC[C@@H]1O [Yohimbine] (top concentration 46.0829 µM)"
metric_name = "viability"
reported_result = 103


// lookup viability | system=SB.msgc-1 | key= CC(C)(Oc1ccc(C2CC2(Cl)Cl)cc1)C(=O)O (centres undefined) [Ciprofibrate] (top concentration 92.1659 µM)
58

// lookup viability | system=SB.msgc-1 | key= CCCNC(=O)Nc1ccc(Oc2ncnc3cc(OC)c(OC)cc23)cc1Cl [KRN-633] (top concentration 46.0829 µM)
28.9

// lookup viability | system=SB.msgc-1 | key= CC(C)CC(=O)N[C@H](C(=O)N[C@H](C(=O)N[C@@H](CC(C)C)[C@@H](O)CC(=O)N[C@@H](C)C(=O)N[C@@H](CC(C)C)[C@@H](O)CC(=O)O)C(C)C)C(C)C [Pepstatin] (top concentration 46.0829 µM)
92.9

// lookup viability | system=SB.msgc-1 | key= COc1ccc(/C=C\c2cc(OC)c(OC)c(OC)c2)cc1O [Combretastatin A-4] (top concentration 46.0829 µM)
49.1

// lookup viability | system=SB.msgc-1 | key= Cc1ncc([N+](=O)[O-])n1CC(C)O (centres undefined) [Secnidazole] (top concentration 46.0829 µM)
86.5

// lookup viability | system=SB.msgc-1 | key= Cc1cc(Nc2ncc3c(n2)N(C)C(=O)N(c2cc(NC(=O)c4cccc(C(F)(F)F)c4)ccc2C)C3)n(C)n1 [Pluripotin] (top concentration 46.0829 µM)
45.8

// lookup viability | system=SB.msgc-1 | key= c1ccc2c(Oc3nc(Nc4ccc(N5CCOCC5)cc4)c4ncn(C5CCCCC5)c4n3)cccc2c1 [purmorphamine] (top concentration 46.0829 µM)
58.9

// lookup viability | system=SB.msgc-1 | key= Cc1cc(OCCC[S+](C)(=O)[O-])cc(C)c1-c1cccc(COc2ccc3c(c2)OC[C@H]3CC(=O)O)c1 [TAK-875] (top concentration 46.0829 µM)
49

// lookup viability | system=SB.msgc-1 | key= O=C(O)c1cccnc1 [Niacin] (top concentration 46.0829 µM)
82.7

// lookup viability | system=SB.msgc-1 | key= CN1[C@@H]2CC(O)C[C@H]1[C@@H]1O[C@@H]12 (some centres undefined) [Scopine] (top concentration 46.0829 µM)
1.37

// lookup viability | system=SB.msgc-1 | key= CC1(CN2CCC(n3c(=O)[nH]c4ccccc43)CC2)OCc2ccccc2-n2cccc21 (centres undefined) [Zaldaride maleate] (top concentration 46.0829 µM)
20.3

// lookup viability | system=SB.msgc-1 | key= Fc1ccc(C(c2ccc(F)cc2)N2CCN(C/C=C/c3ccccc3)CC2)cc1 [Flunarizine] (top concentration 46.0829 µM)
74.7

// lookup viability | system=SB.msgc-1 | key= CCCN[C@H]1CCc2nc(N)sc2C1 [Pramipexole hydrochloride] (top concentration 46.0829 µM)
113

// lookup viability | system=SB.msgc-1 | key= Nc1ccc(C(=O)c2cc3c(ccc4ccccc43)[nH]2)cc1 [IPFK2] (top concentration 46.0829 µM)
27.4

// lookup viability | system=SB.msgc-1 | key= CC(Cc1ccc(O)c(O)c1)(NN)C(=O)O (centres undefined) [Carbidopa] (top concentration 46.0829 µM)
74.1

---

# Tested on: SB.msgc-1
# Protocol Text: area under the dose-response curve of % viability (trapezoidal, 11 doses) (% viability x log10 concentration); higher = less cytotoxic
# Measurement Context: SB.msgc-1 (sporadic gastric cancer)
Lab note: anything with area under the dose-response curve at or over 500 counts as Met; the rest go in Not met.

Previously resolved entries follow.
[[record]]
compound = "CC[C@@H]1C(=O)N(C)c2cnc(Nc3ccc(C(=O)NC4CCN(C)CC4)cc3OC)nc2N1C1CCCC1 [BI-2536] (top concentration 46.0829 µM)"
class_name = "Not met"

[[record]]
compound = "COC(=O)[C@H](Cc1ccccc1)NC(=O)[C@@H](N)CC(=O)O [Aspartame] (top concentration 46.0829 µM)"
class_name = "Met"

[[record]]
compound = "C=CCc1cc(OC)c(O)c(C(=O)NCCO)c1 [Alibendol] (top concentration 46.0829 µM)"
class_name = "Met"

[[record]]
compound = "CN1CCN(c2ncc(-c3cc(Cl)cc(Cl)c3Cl)c(N)n2)CC1 [Sipatrigine] (top concentration 46.0829 µM)"
class_name = "Met"

[[record]]
compound = "Cc1c(C(=O)Nc2cccc(C(F)(F)F)c2)cc(-c2ccccc2)n1CCCN1CCOCC1 (top concentration 46.0829 µM)"
class_name = "Not met"


# check: area under the dose-response curve of Cc1nc(C(=O)NCC(=O)O)c(O)c2ccc(Oc3ccccc3)cc12 [FG-4592] (top concentration 46.0829 µM) is greater than or equal to 500
Met

# check: area under the dose-response curve of CNC(=O)c1ccc(N2C(=S)N(c3ccc(C#N)c(C(F)(F)F)c3)C(=O)C23CCC3)cc1F [RD-162] (top concentration 46.0829 µM) is greater than or equal to 500
Not met

# check: area under the dose-response curve of CC1=C(/C=C/C(C)=C/C=C/C(C)=C/C(=O)O)C(C)(C)CCC1 [Tretinoin] (top concentration 46.0829 µM) is greater than or equal to 500
Not met

---

Catalogue of viability readings, one per entry.
# Tested on: SB.msgc-1
# Protocol Text: viability at highest tested concentration (MAXR) relative to DMSO; higher = less cytotoxic
# Measurement Context: SB.msgc-1 (sporadic gastric cancer)
Where a name gives a salt, the structure may show the parent alone.
Please state the figure in %; there is no need to write the unit.

Use these answered entries as a reference point.
[[record]]
compound = "COc1cc(Cl)cn2c(-c3cccc(NC4CNC4)n3)cnc12 (top concentration 46.0829 µM)"
metric_name = "viability"
units_text = "%"
reported_result = 51.3

[[record]]
compound = "CO/N=C(/C(=O)N[C@@H]1C(=O)N2C(C(=O)O)=C(Cn3ccc(=N)n3CCO)CS[C@H]12)c1csc(N)n1 [Cefoselis sulfate] (top concentration 46.0829 µM)"
metric_name = "viability"
units_text = "%"
reported_result = 109


Now look at this one.
Entry CC(C)OC1=CC=C2C(=C1)O\C=C(/C2=O)C3=CC=CC=C3 [Ipriflavone] (top concentration 46.0829 µM) has what viability?
54

---

Catalogue of area under the dose-response curve readings, one per entry.
# Test system: SB.mhdgc-1
# Protocol Text: area under the dose-response curve of % viability (trapezoidal, 11 doses) (% viability x log10 concentration); higher = less cytotoxic
# Measurement Context: SB.mhdgc-1 (hereditary c.1380delA CDH1 gastric cancer)
Where a name gives a salt, the structure may show the parent alone.
Answer as a number with no unit attached.

Use these answered entries as a reference point.
[[record]]
compound = "N[C@H]2CN(CC12CC1)c3c(F)cc4c(c3Cl)[N@@](C=C(C4=O)C(=O)O)C5C[C@H]5F (stereo partly specified) [Sitafloxacin hydrate] (top concentration 46.0829 µM)"
metric_name = "area under the dose-response curve"
reported_result = 444

[[record]]
compound = "CCCc1cc(C(N)=S)ccn1 [Protionamide] (top concentration 46.0829 µM)"
metric_name = "area under the dose-response curve"
reported_result = 480


Now look at this one.
Entry COc1ccc(C2Sc3ccccc3N(CCN(C)C)C(=O)C2OC(C)=O)cc1 (stereo unspecified) [Diltiazem hydrochloride] (top concentration 46.0829 µM) has what area under the dose-response curve?
588

---

# Test system: SB.msgc-1
# Protocol Text: area under the dose-response curve of % viability (trapezoidal, 11 doses) (% viability x log10 concentration); higher = less cytotoxic
# Measurement Context: SB.msgc-1 (sporadic gastric cancer)
Metric Name: area under the dose-response curve

Entry Cc1cc(Nc2cc(CN3CCOCC3)c3nc(C)c(Cc4ccc(Cl)cc4F)n3n2)[nH]n1 [Gandotinib] (top concentration 46.0829 µM) has what area under the dose-response curve?
467

Entry COc1ccc2nc3cc(Cl)ccc3c(Nc3cc(CN4CCCC4)c(O)c(CN4CCCC4)c3)c2n1 [Pyronaridine] (top concentration 46.0829 µM) has what area under the dose-response curve?
504

Entry Nc1nc(Nc2ccc([S+](N)(=O)[O-])cc2)nn1C(=O)c1c(F)cccc1F (top concentration 46.0829 µM) has what area under the dose-response curve?
433

---

# System: SB.mhdgc-1
# Protocol Text: viability at highest tested concentration (MAXR) relative to DMSO; higher = less cytotoxic
# Measurement Context: SB.mhdgc-1 (hereditary c.1380delA CDH1 gastric cancer)
Structures can show the parent of a compound that is named as a salt.
Catalogue of viability readings, one per entry.
Please state the figure in %; there is no need to write the unit.

Use these answered entries as a reference point.
[[record]]
compound = "CCC(C)(Oc1ccc(C2(c3ccc(OC(C)(CC)C(=O)O)cc3)CCCCC2)cc1)C(=O)O (stereo unspecified) [Clinofibrate] (top concentration 46.0829 µM)"
units_text = "%"
reported_result = 106

[[record]]
compound = "CC1Cc2ccccc2N1NC(=O)c1ccc(Cl)c([S+](N)(=O)[O-])c1 (stereo unspecified) [Indapamide] (top concentration 46.0829 µM)"
units_text = "%"
reported_result = 112

[[record]]
compound = "Cc1ccc(Nc2cc(-c3cccc(N4C(=O)c5ccccc5C4=O)c3)ncn2)cc1N[S+](C)(=O)[O-] [CDK9 inhibitor] (top concentration 46.0829 µM)"
units_text = "%"
reported_result = 43.4

[[record]]
compound = "CN[C@H](CC(C)C)C(=O)N[C@H]1C(=O)N[C@@H](CC(N)=O)C(=O)N[C@H]2C(=O)N[C@H]3C(=O)N[C@H](C(=O)N[C@H](C(=O)O)c4cc(O)cc(O)c4-c4cc3ccc4O)[C@H](O)c3ccc(c(Cl)c3)Oc3cc2cc(c3O[C@@H]2O[C@H](CO)[C@@H](O)[C@H](O)[C@H]2O[C@H]2C[C@](C)(N)[C@H](O)[C@H](C)O2)Oc2ccc(cc2Cl)[C@H]1O [Vancomycin hydrochloride] (top concentration 46.0829 µM)"
units_text = "%"
reported_result = 73.2

[[record]]
compound = "COc1ccccc1N1CCN(CCN(C(=O)C2CCCCC2)c2ccccn2)CC1 (top concentration 46.0829 µM)"
units_text = "%"
reported_result = 96.2


// lookup viability | system=SB.mhdgc-1 | key= ClC1=CC=C(C=C1)C(C#N)C2=C(Cl)C=C(C=C2Cl)N3\N=C/C(=O)NC3=O (stereo unspecified) [Diclazuril] (top concentration 46.0829 µM)
8.68

// lookup viability | system=SB.mhdgc-1 | key= O=C(Nc1ccc([N+](=O)[O-])cc1Cl)c1cc(Cl)ccc1O [Niclosamide] (top concentration 46.0829 µM)
12.2

// lookup viability | system=SB.mhdgc-1 | key= CCCCOc1c(C(=O)c2c(F)cc(C)cc2F)cnc2[nH]ncc12 (top concentration 46.0829 µM)
39.2
